# protocol_description: Plasma pharmacokinetics after IV CMS (Period 1)
# condition_details: human, in vivo, iv, elimination t1/2 (half-life, as stated in text), plasma
Where a SMILES comes first, the peptide text is derived from it. Bridges are numbered along the chain shown (N, C = ends). [ ]: non-standard residue; d: D form. The star is where a group is joined. Heptanoyl(6-Me) = CC(C)CCCCC(=O)*; X1 = CC[C@H](C)CCCCC(=O)*; Dab = NCC[C@H](N)C(=O)O
observable: half-life

{"molecule": "CC(C)CCCCC(=O)N[C@@H](CCN)C(=O)N[C@H](C(=O)N[C@@H](CCN)C(=O)N[C@H]1CCNC(=O)[C@H]([C@@H](C)O)NC(=O)[C@H](CCN)NC(=O)[C@H](CCN)NC(=O)[C@H](CC(C)C)NC(=O)[C@@H](CC(C)C)NC(=O)[C@H](CCN)NC1=O)[C@@H](C)O [colistin B] ({Heptanoyl(6-Me)}-[Dab]T[Dab][Dab][Dab][dL]L[Dab][Dab]T; lactam 4-C)", "observable": "half-life", "observed_result": "~3.5 h"}

Then there is this molecule:
Please give the measured half-life for this molecule: CC[C@H](C)CCCCC(=O)N[C@@H](CCN)C(=O)N[C@H](C(=O)N[C@@H](CCN)C(=O)N[C@H]1CCNC(=O)[C@H]([C@@H](C)O)NC(=O)[C@H](CCN)NC(=O)[C@H](CCN)NC(=O)[C@H](CC(C)C)NC(=O)[C@@H](CC(C)C)NC(=O)[C@H](CCN)NC1=O)[C@@H](C)O [colistin A] (X1-[Dab]T[Dab][Dab][Dab][dL]L[Dab][Dab]T; lactam 4-C)
~3.5 h

----------
# protocol_description: clinical
# condition_details: human, in vivo, inhaled or intranasal, 75 mg, AUC(0-t),; SD
Where a SMILES comes first, the peptide text is derived from it. Bridges are numbered along the chain shown (N, C = ends). [ ]: non-standard residue; d: D form. The star is where a group is joined. X1 = CC[C@H](C)CCCCC(=O)*; Dab = NCC[C@H](N)C(=O)O
observable: AUC(0-t) (ng·h/mL)
A number alone suffices; assume ng·h/mL.

Please give the measured AUC(0-t) for this compound: CC[C@H](C)CCCCC(=O)N[C@@H](CCN)C(=O)N[C@H](C(=O)N[C@@H](CCN)C(=O)N[C@H]1CCNC(=O)[C@H]([C@@H](C)O)NC(=O)[C@H](CCN)NC(=O)[C@H](CCN)NC(=O)[C@H](CC(C)C)NC(=O)[C@@H](CC(C)C)NC(=O)[C@H](CCN)NC1=O)[C@@H](C)O [colistin A] (X1-[Dab]T[Dab][Dab][Dab][dL]L[Dab][Dab]T; lactam 4-C)
4220

----------
# protocol_description: Plasma pharmacokinetics after IV CMS (Period 1)
# condition_details: human, in vivo, iv, 3.3 mg/kg, t1/2, Period 1, Cohort 3: IV 3.3 mg/kg colistin base activity q8h x 3 doses; plasma after final dose; mean (SD); SD
Where a SMILES comes first, the peptide text is derived from it. Bridges are numbered along the chain shown (N, C = ends). [ ]: non-standard residue; d: D form. The star is where a group is joined. Heptanoyl(6-Me) = CC(C)CCCCC(=O)*; X1 = CC[C@H](C)CCCCC(=O)*; Dab = NCC[C@H](N)C(=O)O
Recorded half-life for the following compounds
A number alone suffices; assume h.

{"compound": "CC[C@H](C)CCCCC(=O)N[C@@H](CCN)C(=O)N[C@H](C(=O)N[C@@H](CCN)C(=O)N[C@H]1CCNC(=O)[C@H]([C@@H](C)O)NC(=O)[C@H](CCN)NC(=O)[C@H](CCN)NC(=O)[C@H](CC(C)C)NC(=O)[C@@H](CC(C)C)NC(=O)[C@H](CCN)NC1=O)[C@@H](C)O [colistin A] (X1-[Dab]T[Dab][Dab][Dab][dL]L[Dab][Dab]T; lactam 4-C)", "observable": "half-life", "observed_result": 4.22}

Then there is this compound:
Please give the measured half-life for this compound: CC(C)CCCCC(=O)N[C@@H](CCN)C(=O)N[C@H](C(=O)N[C@@H](CCN)C(=O)N[C@H]1CCNC(=O)[C@H]([C@@H](C)O)NC(=O)[C@H](CCN)NC(=O)[C@H](CCN)NC(=O)[C@H](CC(C)C)NC(=O)[C@@H](CC(C)C)NC(=O)[C@H](CCN)NC1=O)[C@@H](C)O [colistin B] ({Heptanoyl(6-Me)}-[Dab]T[Dab][Dab][Dab][dL]L[Dab][Dab]T; lactam 4-C)
3.55

----------
# protocol_description: Plasma pharmacokinetics after IV CMS (Period 1)
# condition_details: human, in vivo, iv, 2.5 mg/kg, t1/2, Period 1, Cohort 1: IV 2.5 mg/kg colistin base activity q12h x 2 doses; plasma after final dose; mean (SD); SD
Where a SMILES comes first, the peptide text is derived from it. Bridges are numbered along the chain shown (N, C = ends). [ ]: non-standard residue; d: D form. The star is where a group is joined. Heptanoyl(6-Me) = CC(C)CCCCC(=O)*; X1 = CC[C@H](C)CCCCC(=O)*; Dab = NCC[C@H](N)C(=O)O
observable: half-life

{"molecule": "CC[C@H](C)CCCCC(=O)N[C@@H](CCN)C(=O)N[C@H](C(=O)N[C@@H](CCN)C(=O)N[C@H]1CCNC(=O)[C@H]([C@@H](C)O)NC(=O)[C@H](CCN)NC(=O)[C@H](CCN)NC(=O)[C@H](CC(C)C)NC(=O)[C@@H](CC(C)C)NC(=O)[C@H](CCN)NC1=O)[C@@H](C)O [colistin A] (X1-[Dab]T[Dab][Dab][Dab][dL]L[Dab][Dab]T; lactam 4-C)", "half-life": "199 min"}

Then there is this molecule:
Please give the measured half-life for this molecule: CC(C)CCCCC(=O)N[C@@H](CCN)C(=O)N[C@H](C(=O)N[C@@H](CCN)C(=O)N[C@H]1CCNC(=O)[C@H]([C@@H](C)O)NC(=O)[C@H](CCN)NC(=O)[C@H](CCN)NC(=O)[C@H](CC(C)C)NC(=O)[C@@H](CC(C)C)NC(=O)[C@H](CCN)NC1=O)[C@@H](C)O [colistin B] ({Heptanoyl(6-Me)}-[Dab]T[Dab][Dab][Dab][dL]L[Dab][Dab]T; lactam 4-C)
207 min

----------
# protocol_description: Plasma pharmacokinetics after IV CMS (Period 1)
# condition_details: human, in vivo, iv, 2.5 mg/kg, tmax, Period 1, Cohort 1: IV 2.5 mg/kg colistin base activity q12h x 2 doses; plasma after final dose; median (min-max)
Where a SMILES comes first, the peptide text is derived from it. Bridges are numbered along the chain shown (N, C = ends). [ ]: non-standard residue; d: D form. The star is where a group is joined. Heptanoyl(6-Me) = CC(C)CCCCC(=O)*; X1 = CC[C@H](C)CCCCC(=O)*; Dab = NCC[C@H](N)C(=O)O
observable: Tmax (min)
A number alone suffices; assume min.

{"compound": "CC(C)CCCCC(=O)N[C@@H](CCN)C(=O)N[C@H](C(=O)N[C@@H](CCN)C(=O)N[C@H]1CCNC(=O)[C@H]([C@@H](C)O)NC(=O)[C@H](CCN)NC(=O)[C@H](CCN)NC(=O)[C@H](CC(C)C)NC(=O)[C@@H](CC(C)C)NC(=O)[C@H](CCN)NC1=O)[C@@H](C)O [colistin B] ({Heptanoyl(6-Me)}-[Dab]T[Dab][Dab][Dab][dL]L[Dab][Dab]T; lactam 4-C)", "display_unit": "min", "Tmax": 40}

Then there is this compound:
Please give the measured Tmax for this compound: CC[C@H](C)CCCCC(=O)N[C@@H](CCN)C(=O)N[C@H](C(=O)N[C@@H](CCN)C(=O)N[C@H]1CCNC(=O)[C@H]([C@@H](C)O)NC(=O)[C@H](CCN)NC(=O)[C@H](CCN)NC(=O)[C@H](CC(C)C)NC(=O)[C@@H](CC(C)C)NC(=O)[C@H](CCN)NC1=O)[C@@H](C)O [colistin A] (X1-[Dab]T[Dab][Dab][Dab][dL]L[Dab][Dab]T; lactam 4-C)
61.2

----------
Recorded Tmax for the following compounds
# protocol_description: Plasma pharmacokinetics after IV CMS (Period 1)
# condition_details: human, in vivo, iv, 2.5 mg/kg, tmax, Period 1, Cohort 2: IV 2.5 mg/kg colistin base activity q8h x 3 doses; plasma after final dose; median (min-max)
Where a SMILES comes first, the peptide text is derived from it. Bridges are numbered along the chain shown (N, C = ends). [ ]: non-standard residue; d: D form. The star is where a group is joined. Heptanoyl(6-Me) = CC(C)CCCCC(=O)*; X1 = CC[C@H](C)CCCCC(=O)*; Dab = NCC[C@H](N)C(=O)O
A number alone suffices; assume min.

{"compound": "CC(C)CCCCC(=O)N[C@@H](CCN)C(=O)N[C@H](C(=O)N[C@@H](CCN)C(=O)N[C@H]1CCNC(=O)[C@H]([C@@H](C)O)NC(=O)[C@H](CCN)NC(=O)[C@H](CCN)NC(=O)[C@H](CC(C)C)NC(=O)[C@@H](CC(C)C)NC(=O)[C@H](CCN)NC1=O)[C@@H](C)O [colistin B] ({Heptanoyl(6-Me)}-[Dab]T[Dab][Dab][Dab][dL]L[Dab][Dab]T; lactam 4-C)", "Tmax / min": 36}

Then there is this compound:
Please give the measured Tmax for this compound: CC[C@H](C)CCCCC(=O)N[C@@H](CCN)C(=O)N[C@H](C(=O)N[C@@H](CCN)C(=O)N[C@H]1CCNC(=O)[C@H]([C@@H](C)O)NC(=O)[C@H](CCN)NC(=O)[C@H](CCN)NC(=O)[C@H](CC(C)C)NC(=O)[C@@H](CC(C)C)NC(=O)[C@H](CCN)NC1=O)[C@@H](C)O [colistin A] (X1-[Dab]T[Dab][Dab][Dab][dL]L[Dab][Dab]T; lactam 4-C)
36
